# System: SK-MEL-28 melanoma
# Assay Details: NCI-60 one-dose screen, 48 h (100 = growth as untreated, 0 = no growth, -100 = all killed)
# Condition Details: 10 µM unless noted
About 83,000 compounds went through this panel and 20% of them were active in at least one assay; those are over-represented in the sample as a whole.
# if measured growth < 90%: 1  # else: 0

molecule=Cc1cc(NCCCNc2ccnc3cc(Cl)ccc23)nc(Nc2ccc(C(=O)N3CCCCC3)cc2)n1 target_of_assay="SK-MEL-28 melanoma" label_class=1
molecule=COc1ccc2c(O)c(/C=C3\N=Nc4ncccc43)oc2c1C[C@@H]1CCNC[C@H]1F target_of_assay="SK-MEL-28 melanoma" label_class=1
molecule=COc1ccc(-c2nc(SCC(=O)Nc3nc4ccc(C)cc4s3)[nH]c(=O)c2C#N)cc1OC target_of_assay="SK-MEL-28 melanoma" label_class=0
molecule=COc1cc(Cc2cc(-c3ccccc3)nn(Cc3ccccc3)c2=O)cc(OC)c1OC target_of_assay="SK-MEL-28 melanoma" label_class=1
molecule=N=C(N)c1ccc(-c2ccc(-c3cc(Cl)cc(Cl)c3)s2)s1 target_of_assay="SK-MEL-28 melanoma" label_class=1
molecule=O=C(Oc1ccc2c(c1)sc1nc(-c3ccccc3)[nH]c(=O)c12)C(F)(F)F target_of_assay="SK-MEL-28 melanoma" label_class=1
molecule=CC1=C2CC/C(C)=C/CC[C@]3(C)O[C@H]3CC/C(C)=C/[C@H]2OC1 target_of_assay="SK-MEL-28 melanoma" label_class=0
molecule="COC(=O)c1nc(-c2ccccc2)oc1S(=O)(=O)N1CCCC(C)C1 (stereo not given)" target_of_assay="SK-MEL-28 melanoma" label_class=1
molecule=N#Cc1ccccc1-c1ccc(CN2C(=O)S/C(=C\c3ccc(Br)cc3)C2=O)cc1 target_of_assay="SK-MEL-28 melanoma" label_class=0

---

# System: SN12C renal
# Assay Details: NCI-60 one-dose screen, 48 h (100 = growth as untreated, 0 = no growth, -100 = all killed)
# Condition Details: 10 µM unless noted
Compounds without any hit were thinned out: in the full panel of roughly 83,000, 20% have a hit.
Value Kind: growth (%)

compound="CCCC(=O)NC(c1ccc2c(c1)OCO2)c1cc(Cl)c2cccnc2c1O (stereo not given)" obs_value=38.1
compound="COc1ccc(C(c2cc(OC)c(OC)c(OC)c2)N2CCCCC2)cc1 (stereo not given)" obs_value=54.3
compound="[N-]=[N+]=NCC1OC(n2cnc3c(NC(=O)Nc4ccccc4)ncnc32)C2OC(=O)CC12 (stereo not given)" obs_value=118
compound=c1cc(OCCN2CCCCCC2)ccc1CNc1ccc2nc(CCC3CCCCC3)[nH]c2c1 obs_value=54.7
compound=O=[N+]([O-])c1ccccc1Nc1ccc2ccccc2c1 obs_value=98.9
compound=CCCCNC(=O)c1ccc2c(c1)nc(-c1ccccc1)n2C1CCCCC1 obs_value=102
compound=COc1cc(/C=C/C(=O)c2cccc(-n3cc(-c4ccc(Cl)cc4)[nH]c3=O)c2)ccc1O obs_value=46.4
compound=COc1cc(Cc2cc(OC)c(O)c(OC)c2)cc(OC)c1O obs_value=97.7
compound=COc1ccc(/C=C(/C(=O)N2CCNCC2)c2cc(OC)c(OC)c(OC)c2)cc1O obs_value=54.6
compound="COc1ccc(C2[C@@H](c3ccccc3)C(=O)N2c2cc(OC)c(OC)c(OC)c2)cc1F (stereo not given in full)" obs_value=32.6

---

Reported growth is given for each of the following molecules.
# System: RPMI-8226 leukemia
# Assay Details: NCI-60 one-dose screen, 48 h (100 = growth as untreated, 0 = no growth, -100 = all killed)
# Condition Details: 10 µM unless noted
This is part of a sample that, as a whole, favours compounds with a hit. Of some 83,000 tested, about 20% had one in any assay.
Value Kind: growth (%)

molecule=CCCn1c(=S)sc2c(NNC(C)=O)nc(C)nc21 obs_value=93.1
molecule=COc1ccc(/C=C2\c3cc(OC)c(OC)c(OC)c3CC[C@@H]2O)cc1F obs_value=28.1
molecule="CCCC(O)Cn1ncc(C(=O)OCC)c1NC(=O)NCc1cccc(C(F)(F)F)c1 (stereo not given)" obs_value=47.9
molecule=C[C@H]1[C@H](C)CC[C@]2(C(=O)NCCNCCN)CC[C@]3(C)C(=CC[C@@H]4[C@@]5(C)CCC(=O)C(C)(C)[C@@H]5CC[C@]43C)[C@H]12 obs_value=-16.3
molecule=CCN(CC)C(=O)CC1=C(C)/C(=C/c2[nH]c(-c3ccc[nH]3)cc2OC)N=C1C obs_value=13.7

---

# Test system: NCI-H322M lung
# Assay Details: NCI-60 one-dose screen, 48 h (100 = growth as untreated, 0 = no growth, -100 = all killed)
# Condition Details: 10 µM unless noted
The panel holds about 83,000 compounds, 20% with a hit somewhere; the sample as a whole holds those more often.
Value Kind: growth (%)

molecule=COC(=O)c1c2c(c[n+]([O-])c1C)C(=O)C=C(NCc1ccccc1)C2=O obs_value=-100
molecule="CN1CC(c2ccc(Br)cc2)C(C(=O)c2ccc(Br)cc2)C12C(=O)Nc1ccccc12 (centres undefined)" obs_value=89.9
molecule=CSc1ccc2c3c(n(C[C@H](O)CO)c(=O)c2c1)-c1ccccc1C3=O obs_value=74.3
molecule="Cc1cc(C)c2c(c1)N(C)c1ncnc(-n3c(C)nc4cc(C)ccc43)c1CC2C (centres undefined)" obs_value=73.4
molecule=C=C(c1ccc(C(=O)O)c(F)c1)c1cc2c(cc1C)C(C)(C)CCC2(C)C obs_value=101
molecule=O=S(=O)(Nc1ccc2ccccc2c1)c1ccc(-c2cnc(C3CC3)o2)cc1 obs_value=48.7
molecule="O=C(/C=C/C12c3ccccc3C(c3ccccc31)C1C(=O)NC(=O)C12)c1ccco1 (centres undefined)" obs_value=30.2
molecule=CC1(C)CC[C@]23CC[C@]4(C)[C@H](CC[C@@H]5[C@@]6(C)C/C(=C/O)C(=O)C(C)(C)[C@@H]6CC[C@]54C)[C@H]2[C@H]1OC3 obs_value=105
molecule=CC[C@H](Nc1nc(N)nc(C)c1C#N)c1nc2cccc(CN(C)c3ncc(C(=O)NO)cn3)c2c(=O)n1-c1ccccc1 obs_value=5.95

---

# System: SF-268 CNS
# Assay Details: NCI-60 one-dose screen, 48 h
# Condition Details: 10 µM unless noted
About 83,000 compounds went through this panel and 20% of them were active in at least one assay; those are over-represented in the sample as a whole. Calls of active or inactive are those of the source. The calls were made as follows: active = growth percent below 10; inactive = the rest.
Labels: active, inactive

compound_structure_string=C#COc1cccc(Nc2ncnc3cc(NC(=O)[C@H](C)Cl)ccc23)c1 target_of_assay="SF-268 CNS" label_class=inactive
compound_structure_string=O=[N+]([O-])c1c(O)c(Cl)cc(Cl)c1Cl target_of_assay="SF-268 CNS" label_class=inactive
compound_structure_string=COc1cc2c3c(c4c5ccccc5[nH]c4c2c(OC)c1OC)C(=O)N(CCN1CCCCC1)C3=O target_of_assay="SF-268 CNS" label_class=inactive
compound_structure_string=O=C(OCc1ccc2c(Cl)cc(Cl)c(O)c2n1)N1CCN(C(=O)c2cc3ccccc3[nH]2)CC1 target_of_assay="SF-268 CNS" label_class=inactive
compound_structure_string=COc1ccc2cc(-c3nc4ccc(C)cn4c3NCc3ccco3)c(=O)[nH]c2c1 target_of_assay="SF-268 CNS" label_class=inactive
compound_structure_string=S=c1ccnc[nH]1 target_of_assay="SF-268 CNS" label_class=inactive
compound_structure_string=C=C[C@@]1(C)CC(=O)[C@@H](C(C)(C)c2cn(C)c3ccc(Br)cc23)C[C@@H]1O[Si](C)(C)C(C)(C)C target_of_assay="SF-268 CNS" label_class=inactive
compound_structure_string=COc1cc(C[C@H]2COc3cc(O)cc(O)c3C2=O)ccc1O target_of_assay="SF-268 CNS" label_class=inactive
compound_structure_string=Nc1cc(Br)cc2c1[nH]c(=O)c1ccccc12 target_of_assay="SF-268 CNS" label_class=inactive
compound_structure_string=c1ccc2cc(Cn3cc(CSc4nc5ccccc5s4)nn3)ccc2c1 target_of_assay="SF-268 CNS" label_class=inactive
compound_structure_string=CC1=C2[C@@H](CC1)[C@]1(C)O[C@@](C3CCNCC3)(C[C@H]1OC(=O)CO)[C@H]2OC(=O)/C=C/c1ccccc1 target_of_assay="SF-268 CNS" label_class=inactive
compound_structure_string=CN(C)CCCn1c2c(c3cnccc3c1=O)C(=O)c1ccccc1-2 target_of_assay="SF-268 CNS" label_class=active
compound_structure_string=Cc1cccc(N=Nc2cccc(C)c2)c1 target_of_assay="SF-268 CNS" label_class=inactive
compound_structure_string=O=C(Nc1cccnc1Nc1ccccc1)c1cn(Cc2cccc(Oc3ccccc3)c2)nn1 target_of_assay="SF-268 CNS" label_class=inactive
compound_structure_string=Cc1ccc(S(=O)(=O)c2nc(-c3ccccc3)oc2SCC(N)=O)cc1 target_of_assay="SF-268 CNS" label_class=inactive
compound_structure_string=O=C(/C=C/c1ccccc1)c1ccc(-n2cc(CN3CCN(c4cc5c(cc4F)c(=O)c(C(=O)O)cn5C4CC4)CC3)nn2)cc1 target_of_assay="SF-268 CNS" label_class=inactive
compound_structure_string=N#Cc1c(-c2cccc(Cl)c2)cc(-c2cccnc2)[nH]c1=O target_of_assay="SF-268 CNS" label_class=inactive
compound_structure_string=CCCc1cc(=O)oc2c(C(=O)CC(C)C)c(O)c(CC=C(C)C)c(O)c12 target_of_assay="SF-268 CNS" label_class=inactive
compound_structure_string=C=C1C(=O)O[C@H]2[C@H]1CC/C(CNC(=O)Cc1c[nH]c3ccccc13)=C\CC[C@@]1(C)O[C@@H]21 target_of_assay="SF-268 CNS" label_class=inactive
compound_structure_string=CCSc1ccnc(N)n1 target_of_assay="SF-268 CNS" label_class=inactive
compound_structure_string=CC1(C)N=C(N)N=C(N)N1c1ccc(S(=O)(=O)Nc2nccs2)cc1 target_of_assay="SF-268 CNS" label_class=inactive

Source listed as PubChem BioAssay (NCI).
